# System: genotype 1a-H77 subgenomic replicon cell line
# Protocol Description: microbe, parasite or virus in culture
# Assay type: cell-based, HCV
# Condition Set: Hepatitis C virus, read-out: EC50 1a
pEC50: −log10 of the molar value.
Reported pEC50 values for a set of molecules
Measure: pEC50

                            smiles_notation  observed_result
0  COc1c(C(=O)Nc2ccc(NS(=O)(=O)c3ccccc3)cc2)cc(N2CCC(=O)NC2=O)cc1C(C)(C)C     6.00 to 7.00
1  COc1c(-c2ccsc2)cc(-n2ccc(=O)[nH]c2=O)cc1-c1ccc2cc(NS(C)(=O)=O)ccc2c1     7.00 to 8.00
2  Cc1noc(C)c1S(=O)(=O)Nc1ccc(NC(=O)c2cc(N3CCC(=O)NC3=O)cc(C(C)(C)C)c2O)cc1           < 6.00
3  COc1c(-c2ccc3c(c2)CC[C@]3(F)CNS(C)(=O)=O)cc(-n2ccc(=O)[nH]c2=O)cc1C(C)(C)C           > 8.00
4  CC(C)(C)c1cc(CCc2ccc(NS(C)(=O)=O)cc2)cc(N2CCC(=O)NC2=O)c1     6.00 to 7.00
5  COc1c(C#Cc2ccc(NS(C)(=O)=O)c3ccccc23)cc(N2CCC(=O)NC2=O)cc1C(C)(C)C     6.00 to 7.00
6  COc1c(-c2ccc3c(c2)CC[C@@]3(F)CNS(C)(=O)=O)cc(-n2ccc(=O)[nH]c2=O)cc1C(C)(C)C     6.00 to 7.00

###

Reported pIC50 values for a set of molecules
# Target Of Assay: HCV polymerase 1B (Δ21 NS5B, BK) (Hepatitis C virus genotype 1b)
# Construct: 20 to 50 nM Δ21 NS5B
# Sequence (P26663 2420-2989, stated change not applied): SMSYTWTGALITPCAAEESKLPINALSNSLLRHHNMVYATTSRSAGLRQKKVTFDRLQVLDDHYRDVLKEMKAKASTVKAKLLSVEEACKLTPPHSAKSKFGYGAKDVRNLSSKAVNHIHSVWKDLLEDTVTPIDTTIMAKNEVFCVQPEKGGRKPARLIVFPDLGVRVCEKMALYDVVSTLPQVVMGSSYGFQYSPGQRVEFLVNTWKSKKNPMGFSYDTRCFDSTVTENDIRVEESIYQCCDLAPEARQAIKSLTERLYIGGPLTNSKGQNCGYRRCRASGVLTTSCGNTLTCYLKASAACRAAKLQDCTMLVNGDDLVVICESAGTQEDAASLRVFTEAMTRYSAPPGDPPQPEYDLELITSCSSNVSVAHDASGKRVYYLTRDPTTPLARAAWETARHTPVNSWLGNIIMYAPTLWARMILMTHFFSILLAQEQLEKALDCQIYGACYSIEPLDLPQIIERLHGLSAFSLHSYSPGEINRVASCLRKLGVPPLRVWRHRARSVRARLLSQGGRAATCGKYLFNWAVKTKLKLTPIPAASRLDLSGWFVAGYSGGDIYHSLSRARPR
# Protocol Description: biochemical
pIC50: −log10 of the molar value.
Measure: pIC50

In [3]: df
Out[3]:
                                   molecule  observed_result
0  COC(=O)Nc1ccc(NC(=O)c2cc(N3CCC(=O)NC3=O)cc(C(C)(C)C)c2OC)cc1           < 6.00
1  COc1c(C(=O)Nc2ccc(NS(=O)(=O)Cc3ccccc3)cc2)cc(N2CCC(=O)NC2=O)cc1C(C)(C)C     6.00 to 7.00
2  CC(C)(C)c1cc(N2CCC(=O)NC2=O)cc(CN2CCCC(CNS(C)(=O)=O)C2)c1O (stereo not shown)           < 6.00
3  COc1c(C(=O)Nc2ccc(NS(C)(=O)=O)cc2)cc(-n2c(C)cc(=O)[nH]c2=O)cc1C(C)(C)C           < 6.00
4  COCCOC(=O)N(c1ccc(NC(=O)c2cc(N3CCC(=O)NC3=O)cc(C(C)(C)C)c2OC)cc1)S(C)(=O)=O           < 6.00
5  CC(C)(C)c1cc(N2CCC(=O)NC2=O)cc(C(=O)Nc2cc(CNS(C)(=O)=O)cs2)c1O     7.00 to 8.00
6  COc1c(C(=O)Nc2ccccc2S(C)(=O)=O)cc(N2CCC(=O)NC2=O)cc1C(C)(C)C           < 6.00

###

# Target Of Assay: HCV polymerase 1B (Δ21 NS5B, BK) (Hepatitis C virus genotype 1b)
# Construct: 20 to 50 nM Δ21 NS5B
# Protocol Description: biochemical
# Experimental: HCV Polymerase Inhibition Assay Either two-fold serial dilutions (fractional inhibition assay) or a narrower range of dilutions spanning the IC50 of the inhibitor (tight binding assay) of the inhibitors were incubated with 20 mM Tris-Cl pH 7.4, 2 mM MnCl2, 1 mM dithiothreitol, 1 mM ethylene diamine tetraacetic acid (EDTA), 60 to 125 μM GTP and 20 to 50 nM Δ21 NS5B (HCV Strain 1B (BK, Genbank accession number M58335, or H77, Genbank accession number AF011751)) for 15 min at room temperature. […]
Measure: IC50

>>> print(df.to_string())
                                   molecule  observed_result
0  CCCC(=O)N(c1ccc(NC(=O)c2cc(N3CCC(=O)NC3=O)cc(C(C)(C)C)c2OC)cc1)S(C)(=O)=O        > 1000 nM
1  COc1c(-c2ccc3c(c2)CC[C@@H]3C(C)(C)NS(C)(=O)=O)cc(-n2ccc(=O)[nH]c2=O)cc1C(C)(C)C (single isomer, unassigned)     10 to 100 nM
2  CC(C)(C)c1cc(N2CCC(=O)NC2=O)cc(C(=O)Nc2ccc3c(c2)CS(=O)(=O)C3)c1O   100 to 1000 nM
3  COc1c(C#Cc2ccc(NS(C)(=O)=O)cc2O)cc(-n2ccc(=O)[nH]c2=O)cc1C(C)(C)C     10 to 100 nM
4  CC(C)(C)c1cc(N2CCC(=O)NC2=O)cc(CNc2ccc(NS(C)(=O)=O)cc2)c1O        > 1000 nM
5  CS(=O)(=O)Nc1ccc(NC(=O)c2cc(N3CCC(=O)NC3=O)ccc2O)cc1        > 1000 nM
6  COc1c(C(=O)Nc2ccc(N(C)S(C)(=O)=O)cc2)cc(N2CCC(=O)NC2=O)cc1C(C)(C)C   100 to 1000 nM
